# credit: patent US20210238260

Target: Factor X, P00742
Sequence (P00742 whole entry, looked up): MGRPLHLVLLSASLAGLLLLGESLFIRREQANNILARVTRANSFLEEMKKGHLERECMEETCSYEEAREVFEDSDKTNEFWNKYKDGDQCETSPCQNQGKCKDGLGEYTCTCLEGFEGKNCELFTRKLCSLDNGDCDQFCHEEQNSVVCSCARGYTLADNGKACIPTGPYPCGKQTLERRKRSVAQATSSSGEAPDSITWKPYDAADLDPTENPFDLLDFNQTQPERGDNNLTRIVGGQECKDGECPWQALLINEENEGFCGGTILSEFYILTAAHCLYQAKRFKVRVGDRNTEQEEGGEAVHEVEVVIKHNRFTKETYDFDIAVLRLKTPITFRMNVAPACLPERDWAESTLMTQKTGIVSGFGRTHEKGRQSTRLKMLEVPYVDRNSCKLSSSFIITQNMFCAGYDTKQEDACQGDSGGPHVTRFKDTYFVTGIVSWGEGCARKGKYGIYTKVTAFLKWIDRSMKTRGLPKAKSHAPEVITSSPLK
measuredProperty: kcat/KM (M⁻¹ s⁻¹)
Give just the numeric value; M⁻¹ s⁻¹ need not be written.

Endpoint output: kcat/KM of FIXa-Y155F/R338E/T343R/R403E (protein) chain 1: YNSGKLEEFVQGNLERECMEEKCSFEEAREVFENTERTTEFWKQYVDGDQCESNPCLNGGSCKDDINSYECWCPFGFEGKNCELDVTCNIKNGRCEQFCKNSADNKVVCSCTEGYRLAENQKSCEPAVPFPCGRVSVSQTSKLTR chain 2: VVGGEDAKPGQFPWQVVLNGKVDAFCGGSIVNEKWIVTAAHCVETGVKITVVAGEHNIEETEHTEQKRNVIRIIPHHNYNAAINKYNHDIALLELDEPLVLNSYVTPICIADKEYTNIFLKFGSGYVSGWGRVFHKGRSALVLQYLRVPLVDRATCLESTKFRIYNNMFCAGFHEGGRDSCQGDSGGPHVTEVEGTSFLTGIISWGEECAMKGKYGIYTKVSEYVNWIKEKTKLT . Value?
2e+08
